Numbers sourced from patent US20200140532A1.

Tested On: T1, recombinant rat Aggrecan G1-IGD-G2 (rat, UniProt P07897 20-684, limits assumed)
T1 construct: also called Rat G1-IGD-G2
Method Summary: periplasmic extract ELISA
Short version: OD 450 nm at least 1 OD 450 nm is TRUE, less is FALSE.

The examples below pair each entry with its known result.
{"columns": ["Binder", "Class Name"],
 "data": [
  ["C0101PMP604F02 (VHH, Tested as E. coli periplasmic extract; not shown: FLAG3 and His6 tags (phagemid pAX212)) VHH: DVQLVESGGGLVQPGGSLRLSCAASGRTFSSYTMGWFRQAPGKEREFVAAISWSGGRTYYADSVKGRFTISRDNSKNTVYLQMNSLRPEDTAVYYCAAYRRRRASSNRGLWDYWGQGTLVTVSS", "FALSE"],
  ["C0101PMP604G09 (VHH, Tested as E. coli periplasmic extract; not shown: FLAG3 and His6 tags (phagemid pAX212)) VHH: DVQLVESGGGLVQPGGSLRLSCVASGRTFSSYAMGWFRQAPGKEREFVAAITWSSATTYYADSVKGRFTISRDNSKNTVYLQMNSLRPEDTAVYYCAAARIPVGRRSENWDYWGQGTLVTVSS", "TRUE"]
]}

Enquiry: Does the binder C0101PMP113A01 (VHH, Tested as E. coli periplasmic extract; not shown: FLAG3 and His6 tags (phagemid pAX212)) VHH: EVQLVESGGGLVQPGGSLRLSCSASGFTFSGSWMFWVRQAPGKDYEWVASINSSGGRTYYDDSVKGRFTISRDSAKNTLYLEMNNLKPEDTALYFCARSPRVGSWGQGTQVTVSS have recorded OD 450 nm that is 1 OD 450 nm or more?
Return: TRUE

Enquiry: # check: OD 450 nm of C0101PMP601E08 (VHH, Tested as E. coli periplasmic extract; not shown: FLAG3 and His6 tags (phagemid pAX212)) VHH: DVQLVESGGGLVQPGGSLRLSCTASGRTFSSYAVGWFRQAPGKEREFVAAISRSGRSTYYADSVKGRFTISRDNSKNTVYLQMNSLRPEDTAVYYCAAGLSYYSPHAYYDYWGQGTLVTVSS is greater than or equal to 1 OD 450 nm
Return: TRUE

Enquiry: Determine whether measured OD 450 nm meets or exceeds 1 OD 450 nm for C0101PMP114F08 (VHH, Tested as E. coli periplasmic extract; not shown: FLAG3 and His6 tags (phagemid pAX212)) VHH: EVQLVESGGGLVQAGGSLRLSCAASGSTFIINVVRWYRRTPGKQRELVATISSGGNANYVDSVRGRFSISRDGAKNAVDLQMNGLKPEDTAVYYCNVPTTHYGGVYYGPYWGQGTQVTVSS
Return: TRUE

Enquiry: Kindly determine if OD 450 nm recorded for C0101PMP609C09 (VHH, Tested as E. coli periplasmic extract; not shown: FLAG3 and His6 tags (phagemid pAX212)) VHH: DVQLVESGGGLVQPGGSLRLSCAASGTIFSINVMGWYRQAPGKEREFVAAITTGGRTNYADSVKGRFTISRDNSKNTVYLQMNSLRPEDTAVYYCNAEVTTGWVGYSWYDYWGQGTMVTVSS is above or exactly 1 OD 450 nm.
Return: FALSE

Enquiry: // inclusive: OD 450 nm at least 1 OD 450 nm? input: C0101PMP604B05 (VHH, Tested as E. coli periplasmic extract; not shown: FLAG3 and His6 tags (phagemid pAX212)) VHH: DVQLVESGGGLVQPGGSLRLSCVASGRTFSIYTMAWFRQAPGKEREFVAAISWSSGRTYYADSVKGRFTISRDNSKNTVYLQMNSLRPEDTAVYYCTAYTGPRSGYDYWGQGTLVTVSS
Return: TRUE

Enquiry: Does C0101PMP117D05 (VHH, Tested as E. coli periplasmic extract; not shown: FLAG3 and His6 tags (phagemid pAX212)) VHH: KVQLVESGGGLVQAGGSLRLSCAASRRTFNMMGWFRQAPGKEREFVAYITWNGGDTRYAESVKGRFTVSRDDVKNTMALQMNRLDPLDTAVYYCGVRIHGSNWSTKADDYDNWGQGTQVTVSS have a reported OD 450 nm of at least 1 OD 450 nm?
Return: TRUE

Enquiry: Reported OD 450 nm reaches at least 1 OD 450 nm for C0101PMP115B08 (VHH, Tested as E. coli periplasmic extract; not shown: FLAG3 and His6 tags (phagemid pAX212)) VHH: KVQLVESGGGLVQPGGSLRLSCAASGFTFSMYAMKWVRQAPGKGLEWVSGINSSGGRTNYAGSVKGRFTISRDNAKNTLYLQMNSLKPEDTAVYYCATDFLGGRNSRGQGTQVTVSS ?
Return: TRUE
